# methodSummary: soluble on expression in E. coli; label from the status in PepcDB or PDB records
outcomeMeasure: soluble on expression in E. coli

chainSequence | outcomeMeasure | observedResult
MSQSRDLQGGKAFGLLKAQQEERLEGINKQFLDDPKYSNDEDLPSKLEAFKVKYMEFDLNGNGDIDIMSLKRMLEKLGVPKTHLELKRLIREVSSGSEETFSYSDFLRMMLGKRSAILRMILMYEEKNKEHKRPTGPPAKKAISELP | soluble on expression in E. coli | soluble
MPIPNNPGAGENAFDPVFVNDDDGYDLDSFMIPAHYKKYLTKVLVPNGVIKNRIEKLAYDIKKVYNNEEFHILCLLKGSRGFFTALLKHLSRIHNYSAVETSKPLFGEHYVRVKSYCNDQSTGTLEIVSEDLSCLKGKHVLIVEDIIDTGKTLVKFCEYLKKFEIKTVAIACLFIKRTPLWNGFKADFVGFSIPDHFVVGYSLDYNEIFRDLDHCCLVNDEGKKKYKATSL | soluble on expression in E. coli | soluble
SAEKFDHLEEHLEKFVENIRQLGIIVSDFQPSSQAGLNQKLNFIVTGLQDIDKCRQQLHDITVPLEVFEYIDQGRNPQLYTKECLERALAKNEQVKGKIDTMKKFKSLLIQELSKVFPEDMAKYRSIRGEDHPPS | soluble on expression in E. coli | soluble

----------
# methodSummary: soluble on expression in E. coli; label from the status in PepcDB or PDB records

chainSequence | soluble on expression in E. coli
MGSDKIHHHHHHMSNQHSWALSMNQIENCSCSHGCGCQFGGFPTSKDGGCEAILGFEILKGHFNDLDLSGLKMVFAAAWPSAMHEGNGKGALFIDNSANEEQVGALATIMSGQAGGMPVEVLGTLFSEFDGPIMADIKLNRQDYTSTVTIEGIIEVEQEPHINPVTGEINEVHISFPKGGFMWNDGFAGKTKLMKINHGNMAFSYSDTFAANAVVNWPNA | not soluble
TAWILMVPIALLYVKNWEEECCKQKKEEFREQFRESIQTLSAILKVGYSVENAIRETWKEICPIYKKKTRIIKEYETMVHQLDLNMTAEEVMKQFADRVKEEDVENFVTVFGAAKRLGGDSIAIIRHAADAIGEKMEVEREIQVMLTSKKLEFKIMCVIPFVIILYMRSAFPEFM | not soluble
MGSDKIHHHHHHMDIELREKIAGEITLSDSPAETIRKWREEFKVSQLELSNFLNQSPSVISDYETGRRKFPSIASVRKIVDALITIDERRGGYVIKKYKSGVPSDALIDIKDYDRDVPLEKAIRAMNGKNVSHVSVERNIRGYTIVDGVKAILAFSYYEYSKLYGWSSERAIFFTDVKFGRSPMIAIRVHPLKPAAVVYIQPDNVDDLAIKLADIENIPLLITEMSPEAVSHVMSQLR | not soluble

----------
# methodSummary: soluble on expression in E. coli; label from the status in PepcDB or PDB records

chainSequence | soluble on expression in E. coli
MTVRSRFFTEAEGKAVGVENAAAKGDVLLVCEHASATIPQKYGTLGLSADVLSSHAAWDPGALAVARLLSEKFHATLVYQRFSRLVYDCNRPPESPSAMPVKSEIYDIPGNFDLDEAERFARTSALYVPFHDRVSEIIAERQAAGRKVVVVTIHSFTPVYHGRFREVEIGILHDNDSRLADAMLAGAEGASLTVRRNDPYGPEDGVTHTLRLHALPDGLLNVMIEIRNDLIANEGEQAAIAGFLHELMGKALSSIEE | soluble
MQYHYQWLTPFDAKRTTVVCLHGFTGTLATFAAVFPSQTPYNVLGIDLPGHGATASLVAPERYTMKQVCHDIAELTESLNLPCFCLLGYSMGARTALGFALHYPQKVQHLLLESGSPGLATAAERQARICQDHRLAERLLEEPLVDFIDFWQELPLFQTQKALSVAQQMAIRQERLSQSAFGLVSSLWYMGTGAQESYWERLAELQPIPTDLLVGGEDQKFIGIAKKMQARQPLLRLTIFPEAGHCIHLEQPTIFYEKVTALLEGAI | not soluble
MGSDKIHHHHHHMLLTRTQIRRLVYAHGREILEHDHMAIERVCYQHGVVTTFAHSIRVACLSVWLADRLHLWNRVDLRSLIRAALLHDYFLYDWHDWDNGTHRLHGFTHGETAMRNAIRDFKLNQIERDSIEHHMFPLTPYPPKYIEGYLVTAADKISATKETLSFDRFDKPASEQPTDRS | not soluble
MPMVRVATNLPDKDVPANFEERLTDLLAESMNKPRNRIAIEVLAGQRITHGASRNPVAVIKVESIGALSADDNIRHTQKITQFCQDTLKLPKDKVIITYFDLQPIHVGFNGTTVAAATM | soluble
MGHAHSSSSNGSSQITANPHDEKTKEKVEKLFRQNNRTNRSRSLDNRTQEKLPNRPVGSSHSARFPKTRHIPVPLQGPRKSEEGPNGSISGLSRDDKRIIETCWFKCSQKQLRKCSCDMFWDILHTDEDILRLFRLDHVAPNRLKDNDYFKSHASNLALVLNLVVTNLQDNFDQAQDALQALGYQHLHLIDRTHFQTMYWDIFTDCFERNPPPSFKKGAEREVALKFHRF | not soluble
MIHRPTAKENAKRFASVIQALHACETACAYCATECGKNGHAEAMGRCVSLCTDCARFCALARDFLERNSEFAELLLEDCAEICQQTMEECVHHAEGHCRKCAEACEQCKKACLEVAGAAPLSSAQQKELLAALLEHHHHHH | not soluble
MPLSPYLSFAGNCSDAIAYYQRTLGAELLYKISFGEMPKSAQDSAENCPSGMQFPDTAIAHANVRIAGSDIMMSDAIPSGKASYSGFTLVLDSQQVEEGKRWFDNLAANGKIEMAWQETFWAHGFGKVTDKFGVPWMINVVKQQPTQ | not soluble
